This collection of values is drawn from paper PMC7828447.

# subject_of_test: human synthetic MSK1 (14-438-K, Millipore) (Homo sapiens)
# Construct: purchased Millipore 14-438-K
# Sequence (O75582 whole entry): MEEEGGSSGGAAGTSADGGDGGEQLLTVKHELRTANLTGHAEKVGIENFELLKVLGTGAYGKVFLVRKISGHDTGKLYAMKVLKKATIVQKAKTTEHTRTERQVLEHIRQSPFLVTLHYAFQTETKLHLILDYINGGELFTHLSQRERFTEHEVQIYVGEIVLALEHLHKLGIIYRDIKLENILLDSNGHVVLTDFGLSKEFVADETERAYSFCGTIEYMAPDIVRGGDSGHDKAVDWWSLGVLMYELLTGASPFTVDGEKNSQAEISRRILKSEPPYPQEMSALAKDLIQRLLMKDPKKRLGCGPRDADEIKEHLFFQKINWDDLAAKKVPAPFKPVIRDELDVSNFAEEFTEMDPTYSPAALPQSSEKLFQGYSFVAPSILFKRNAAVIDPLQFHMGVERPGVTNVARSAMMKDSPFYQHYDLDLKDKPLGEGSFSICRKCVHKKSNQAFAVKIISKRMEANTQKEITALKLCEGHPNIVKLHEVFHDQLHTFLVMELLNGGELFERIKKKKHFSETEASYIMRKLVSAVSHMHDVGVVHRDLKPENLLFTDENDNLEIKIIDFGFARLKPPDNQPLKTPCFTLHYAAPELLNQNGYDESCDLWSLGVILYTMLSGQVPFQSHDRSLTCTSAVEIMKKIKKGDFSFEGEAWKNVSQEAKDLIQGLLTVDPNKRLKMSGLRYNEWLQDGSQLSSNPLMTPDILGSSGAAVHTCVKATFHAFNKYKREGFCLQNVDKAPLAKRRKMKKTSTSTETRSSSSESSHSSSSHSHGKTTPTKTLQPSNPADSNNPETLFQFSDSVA
# assay_procedure: MSK1 enzymatic inhibition assay (Kinase-Glo luminescence)
# Format: biochemical
# particulars: compound at 1 µM; ± Standard Deviation (n = 4); read-out: MSK1 % Inhibition 1 µM
measurement_type: inhibition at 1 µM (%)

Request: Request the reported inhibition at 1 µM associated with Br.NC1=Nc2cccc(-c3cccc(Cl)c3)c2CN1 [Compound 37d]
Result: -5

Request: Which value of inhibition at 1 µM has been reported for N=C(N)Nc1cccc(-c2cc(Cl)ccc2Cl)n1 [Compound 1q] in the records?
Result: 23

Request: Which value of inhibition at 1 µM has been reported for Br.COc1ccccc1-c1cccc2[nH]c(N)nc12 [Compound 49g] in the records?
Result: -3

Request: Which inhibition at 1 µM reading was recorded for the compound COc1cccc(-c2cccc(NC(=N)N)n2)c1 [Compound 1f] ?
Result: -7

Request: Returns the measured inhibition at 1 µM for the input compound. Input: Nc1nc2c(-c3ccccc3Cl)cccc2n1CCc1ccccc1 [Compound 74a]
Result: -6

a = Nc1nc2cc(-c3ccccc3)ccc2[nH]1 [Compound 50]
b = N=C(N)Nc1cccc(-c2cccc(Cl)c2)n1 [Compound 1e]
c = N=C(N)Nc1ccc(CCc2ccccc2)cn1 [Compound 25]
d = Nc1nc2c(-c3cccc(Cl)c3Cl)cccc2[nH]1 [Compound 49e]
e = NC1=Nc2cccc(-c3ccccc3)c2CN1 [Compound 37a]
Request: Please rank these compounds by inhibition at 1 µM in descending order. # the answer lists labels in the order requested
Result: d, c, b, a, e

----------
Reported viability at 24 h, 10 µM values for the following compounds.
# assay_procedure: WST-1 cytotoxicity test (cell viability)
# particulars: human, human pulmonary (lung) fibroblasts
Give the quantity in %, number only.

Request: Query: viability at 24 h, 10 µM; subject: Nc1nc2c(-c3ccccc3)cccc2[nH]1 [Compound 49a]
Result: 93

Request: Could you tell me which viability at 24 h, 10 µM is on file for N=C(N)Nc1cccc(-c2ccccc2)n1 [Compound 1a, 1-(6-phenylpyridin-2-yl)guanidine] ?
Result: 122

Request: Suppose we examine the compound NC1=Nc2cccc(-c3ccccc3)c2CN1 [Compound 37a] ; what viability at 24 h, 10 µM value has been reported?
Result: 122

Request: viability at 24 h, 10 µM for N=C(N)Nc1cccc(-c2ccccc2F)n1 [Compound 1j] ?
Result: 100

Request: // query viability at 24 h, 10 µM value for entry O=C1NCCc2[nH]c(-c3ccncc3)cc21 [PHA767491, reference compound]
Result: 95

Request: Given the entry N=C(N)Nc1cccc(-c2cc(Cl)ccc2Cl)n1 [Compound 1q] , report its measured viability at 24 h, 10 µM.
Result: 31

Request: Need viability at 24 h, 10 µM of Br.NC1=Nc2cccc(-c3ccccc3Cl)c2CN1 [Compound 37f] , thanks.
Result: 100

Request: Find the recorded viability at 24 h, 10 µM belonging to Br.Nc1nc2c(-c3ccccc3Cl)cccc2[nH]1 [Compound 49d] and report it.
Result: 85

----------
Documented melting point across a set of compounds
Structures can show the parent of a compound that is named as a salt.

Answered cases to consult:
Request: Query: melting point; subject: Br.COc1ccccc1-c1cccc2c1CNC(N)=N2 [Compound 37g]
Result: 226 to 229 °C

Request: melting point for N=C(N)Nc1cccc(-c2ccc(Cl)cc2Cl)n1 (as salt: trifluoroacetate) ?
Result: 196 to 197 °C

Request: Could you tell me which melting point is on file for Br.NC1=Nc2cccc(-c3cccc(Cl)c3)c2CN1 [Compound 37d] ?
Result: 228 to 230 °C

Consider now this further compound.
Request: Tell me the measured melting point of N=C(N)Nc1cccc(N2CCCCC2)n1 (as salt: salt) , please.
Result: 196 to 197 °C
